- System Name: T1, human TNFR2 (Novoprotein, Cat #C830) (human, UniProt P20333 23-257, limits assumed)
- T1 construct: construct not described; also called human TNFR2 protein
- T1 sequence (looked up): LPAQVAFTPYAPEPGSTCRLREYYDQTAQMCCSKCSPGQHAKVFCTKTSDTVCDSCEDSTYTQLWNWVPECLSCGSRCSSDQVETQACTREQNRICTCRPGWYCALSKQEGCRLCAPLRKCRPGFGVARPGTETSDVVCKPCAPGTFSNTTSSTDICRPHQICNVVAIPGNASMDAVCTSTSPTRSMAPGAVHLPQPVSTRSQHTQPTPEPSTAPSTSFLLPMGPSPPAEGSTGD
- Measurement Protocol: competition ELISA, competitor human TNFα-Biotin; IC50 against 001-WT
Recorded % Relative activity (WT antibody/test antibody), one value per entry.
Hi! Could you send only the number? It should be in %, unit omitted.

The cases that follow already have their % Relative activity (WT antibody/test antibody) on record.
binder="001-Hu5 (antibody, V domains shown, Humanized form of #001; also called VH1 + VL4) VH: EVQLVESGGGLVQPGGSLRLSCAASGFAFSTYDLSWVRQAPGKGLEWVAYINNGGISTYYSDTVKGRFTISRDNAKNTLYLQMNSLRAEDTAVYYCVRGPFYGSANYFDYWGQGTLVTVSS VL: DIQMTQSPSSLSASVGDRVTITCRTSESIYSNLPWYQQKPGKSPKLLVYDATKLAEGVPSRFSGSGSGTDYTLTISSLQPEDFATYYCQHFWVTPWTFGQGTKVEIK" result_unit=% reported_result=96.5
binder="001-Hu2 (antibody, V domains shown, Humanized form of #001; also called VH2 + VL2) VH: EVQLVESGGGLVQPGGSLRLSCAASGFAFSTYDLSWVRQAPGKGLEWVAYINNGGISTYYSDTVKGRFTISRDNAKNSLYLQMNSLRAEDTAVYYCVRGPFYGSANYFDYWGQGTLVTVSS VL: DIQMTQSPSSLSASVGDRVTITCRTSESIYSNLPWYQQKPGKSPKLLIYDATKLAEGVPSRFSGSGSGTDFTLTISSLQPEDFATYYCQHFWVTPWTFGQGTKVEIK" result_unit=% reported_result=82.8
binder="001-Hu3 (antibody, V domains shown, Humanized form of #001; also called VH1 + VL3) VH: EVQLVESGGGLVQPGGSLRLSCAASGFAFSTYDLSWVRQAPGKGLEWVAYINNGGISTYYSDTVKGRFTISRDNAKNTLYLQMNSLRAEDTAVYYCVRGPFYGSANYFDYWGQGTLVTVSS VL: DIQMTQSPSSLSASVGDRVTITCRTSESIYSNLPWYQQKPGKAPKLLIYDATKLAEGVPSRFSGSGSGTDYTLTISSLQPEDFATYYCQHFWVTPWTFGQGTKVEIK" result_unit=% reported_result=105

The record that follows has no % Relative activity (WT antibody/test antibody) shown yet.
Reported % Relative activity (WT antibody/test antibody) of 001-Hu4 (antibody, V domains shown, Humanized form of #001; also called VH2 + VL4) VH: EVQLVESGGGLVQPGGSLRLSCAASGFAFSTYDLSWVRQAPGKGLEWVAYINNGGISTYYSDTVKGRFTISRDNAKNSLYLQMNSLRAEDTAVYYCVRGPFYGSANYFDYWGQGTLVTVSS VL: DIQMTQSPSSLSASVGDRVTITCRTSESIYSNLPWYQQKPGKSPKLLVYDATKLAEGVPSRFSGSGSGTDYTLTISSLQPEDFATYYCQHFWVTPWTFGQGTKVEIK : 105
